# Test system: Danio rerio Tg(wt1b:EGFP) embryo, pronephros
# Protocol: pronephric angle neck segment to proximal convoluted tubule (mean of left and right), fold change vs DMSO control; higher = larger pronephric angle
# Assay Conditions: 25 µM; exposure: 24-48 hpf
Where a name gives a salt, the structure may show the parent alone.
Please use rule met whenever pronephric angle neck segment is not below 1, and rule not met whenever it is.

*Q* Entry CN1CCC(=C2c3ccccc3CC(=O)c3sccc32)CC1 [Ketotifen fumarate] : is its pronephric angle neck segment no less than 1?
*A* rule not met

*Q* Entry CO/N=C(\C(=O)N[C@@H]1C(=O)N2C(C(=O)OC(C)OC(C)=O)=C(COC(N)=O)CS[C@H]12)c1ccco1 (some centres undefined) : is its pronephric angle neck segment no less than 1?
*A* rule met

*Q* Entry "CC1(C)S[C@@H]2[C@H](NC(=O)[C@H](N)c3ccc(O)cc3)C(=O)N2[C@H]1C(=O)O" : is its pronephric angle neck segment no less than 1?
*A* rule met

*Q* Entry "CCCOc1ccc2[nH]c(NC(=O)OC)nc2c1" : is its pronephric angle neck segment no less than 1?
*A* rule met
